Origin of measurements: patent CN115873113A

- TESTED_SYSTEM: T1, Biotin-CaSR蛋白 (人体细胞外钙敏感受体, Human extracellular calcium-sensing receptor) (human, UniProt P41180 20-870, limits assumed, biotinylated (Biotin-CaSR); site not stated)
- T1 construct: Purified, detergent-solubilised CaSR; It was biotinylated and captured on NeutrAvidin plates for ELISA or on streptavidin biosensors for Octet
- T1 sequence (looked up): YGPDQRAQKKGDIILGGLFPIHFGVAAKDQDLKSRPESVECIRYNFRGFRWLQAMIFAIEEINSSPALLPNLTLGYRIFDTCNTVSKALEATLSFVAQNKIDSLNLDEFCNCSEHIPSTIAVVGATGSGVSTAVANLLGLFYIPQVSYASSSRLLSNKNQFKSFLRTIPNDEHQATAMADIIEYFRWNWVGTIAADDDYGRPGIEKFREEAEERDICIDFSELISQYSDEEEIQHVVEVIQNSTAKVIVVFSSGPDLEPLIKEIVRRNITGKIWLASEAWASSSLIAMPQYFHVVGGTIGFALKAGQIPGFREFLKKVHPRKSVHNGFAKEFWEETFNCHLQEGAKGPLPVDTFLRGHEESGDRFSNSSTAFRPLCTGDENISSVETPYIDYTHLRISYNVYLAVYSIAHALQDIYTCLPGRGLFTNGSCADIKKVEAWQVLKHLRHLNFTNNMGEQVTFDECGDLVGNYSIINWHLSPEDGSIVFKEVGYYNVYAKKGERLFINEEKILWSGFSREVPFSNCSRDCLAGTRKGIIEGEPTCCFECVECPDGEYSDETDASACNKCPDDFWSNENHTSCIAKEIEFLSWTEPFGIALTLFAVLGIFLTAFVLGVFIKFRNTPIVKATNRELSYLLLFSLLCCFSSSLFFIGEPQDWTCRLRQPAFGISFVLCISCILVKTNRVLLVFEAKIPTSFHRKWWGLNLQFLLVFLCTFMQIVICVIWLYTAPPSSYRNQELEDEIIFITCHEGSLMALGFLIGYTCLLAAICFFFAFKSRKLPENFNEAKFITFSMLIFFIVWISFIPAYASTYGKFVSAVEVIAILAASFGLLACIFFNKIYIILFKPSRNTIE
- ASSAY_EXPLANATION: ELISA, Biotin-CaSR on NeutrAvidin plate, nanobody titrated 1e-11 to 1e-6 mol/l, anti-HA detection
Reported EC50 is given for each of the following binders.

// below: answered binders
纳米抗体2D4 (VHH, Camel VHH expressed in E. coli and purified on a nickel column; It was detected through an HA tag; also called 抗体株2D4) VHH: LQESGGGSVQIGGSLRLSCAASGYTYMRYSSFCMGWFRQAPGKEREGVAAIDSGRRTTHADSVKGRFTISRDNAKNTLYLQMNSLKPEDTAMYYCAARDVGYCGGYWARRDFAYWGQGTQVTVSS ... 0.9
纳米抗体NB88 (VHH, Camel VHH expressed in E. coli and purified on a nickel column; It was detected through an HA tag; also called 抗体株NB88) VHH: QVQLQESGGGSVQAGESLRLSCAASRYGYSRNWMGWFRQPPGKEREGVAVIYTGGSKTAYADAVKGRFIISLDNANNTVYLQMNSLKPEDTAMYYCAAGLVAYGRRWSPEAYKYWGQGTQVTVSS ... 1

Query: Name the recorded EC50 for 纳米抗体2D11 (VHH, Camel VHH expressed in E. coli and purified on a nickel column; It was detected through an HA tag; also called 抗体株2D11) VHH: QVQLQESGGGSVQAGGSLRLSCAASGFPISTYDMGWFRQAPGKEREGVVGITDSFSIKYEDSVKGRFTISRDNAKNALYLQMNSLKPEDTGMYYCAAGDARWSLLLRAEQYNYWGQGTQVTVSS .
Reply: 1.9
